Where do these numbers come from? They come from patent US11957680B2.

- measured-target: wild type PKR (Homo sapiens)
- Sequence (P30613 whole entry): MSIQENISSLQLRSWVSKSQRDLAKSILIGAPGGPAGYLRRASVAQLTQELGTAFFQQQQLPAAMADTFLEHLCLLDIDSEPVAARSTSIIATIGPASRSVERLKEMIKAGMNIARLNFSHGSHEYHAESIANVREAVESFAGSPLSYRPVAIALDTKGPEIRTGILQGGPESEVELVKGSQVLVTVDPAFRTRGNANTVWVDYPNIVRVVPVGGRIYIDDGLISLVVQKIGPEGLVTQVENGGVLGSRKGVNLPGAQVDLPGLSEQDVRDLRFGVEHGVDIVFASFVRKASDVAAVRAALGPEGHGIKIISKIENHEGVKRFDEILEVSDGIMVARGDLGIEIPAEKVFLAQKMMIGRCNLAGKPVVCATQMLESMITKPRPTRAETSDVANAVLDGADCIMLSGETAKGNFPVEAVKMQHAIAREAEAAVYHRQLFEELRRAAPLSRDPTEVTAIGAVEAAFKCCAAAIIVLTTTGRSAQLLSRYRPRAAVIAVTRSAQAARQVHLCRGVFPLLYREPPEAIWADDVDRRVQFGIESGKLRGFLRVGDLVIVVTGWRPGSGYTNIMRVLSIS
- assay-name: Cell based ATP assay in purified red blood cells (Cell-Titer-Glo)
- Parameters: endogenous in cells; host or cells: purified red blood cells from healthy volunteers
- setup-conditions: Table 4; AC50, RBCs, overnight at 37° C., ATP levels

>  <smiles-notation>
CN(c1csc(Cc2cnc(=O)[nH]c2)n1)c1ccnn(Cc2cccc3[nH]ncc23)c1=O

>  <EC50>
> 1 µM

$$$$
>  <smiles-notation>
Cn1c2nc(Cn3ccnc3)sc2c2cnn(Cc3cccc4[nH]ncc34)c(=O)c21

>  <EC50>
> 1 µM

$$$$
>  <smiles-notation>
Cn1c2nc(Cc3c[nH]nn3)sc2c2cnn(Cc3cccc(OC(F)(F)F)c3)c(=O)c21

>  <EC50>
≤ 1 µM

$$$$
>  <smiles-notation>
Cn1c2nc(Cc3cc[nH]n3)sc2c2cnn(Cc3ccc4cc[nH]c4n3)c(=O)c21

>  <EC50>
≤ 1 µM

$$$$
>  <smiles-notation>
Cn1c2nc(Cc3cnn[nH]3)sc2c2cnn(Cc3cccc4[nH]ncc34)c(=O)c21

>  <EC50>
≤ 1 µM

$$$$
>  <smiles-notation>
Cn1c2nc([C@@H](O)c3cc[nH]n3)sc2c2cnn(Cc3cccc4[nH]ncc34)c(=O)c21

>  <EC50>
≤ 1 µM

$$$$
>  <smiles-notation>
Cn1c2nc(Cc3c[nH]nn3)sc2c2cnn(Cc3ccccc3)c(=O)c21

>  <EC50>
> 1 µM

$$$$
>  <smiles-notation>
Cn1ccc(Cn2ncc3c4sc(CCc5cc[nH]n5)nc4n(C)c3c2=O)n1

>  <EC50>
≤ 1 µM

$$$$
>  <smiles-notation>
Cn1c2nc(Cc3cc(Cl)[nH]n3)sc2c2cnn(Cc3cccc4[nH]ncc34)c(=O)c21

>  <EC50>
≤ 1 µM

$$$$
>  <smiles-notation>
Cn1c2nc(Cc3cncs3)sc2c2cnn(Cc3cccc4[nH]ncc34)c(=O)c21

>  <EC50>
≤ 1 µM

$$$$
>  <smiles-notation>
Cn1c2nc(Oc3ccn[nH]3)sc2c2cnn(Cc3cccc(N)n3)c(=O)c21

>  <EC50>
≤ 1 µM

$$$$
>  <smiles-notation>
Cn1c2nc(Cn3cccn3)sc2c2cnn(Cc3cccc4[nH]ncc34)c(=O)c21

>  <EC50>
≤ 1 µM

$$$$
>  <smiles-notation>
C#CCn1ncc2c3sc(Cc4ccccn4)nc3n(C)c2c1=O

>  <EC50>
≤ 1 µM

$$$$
>  <smiles-notation>
Cn1c2nc(Cc3cc[nH]n3)sc2c2cnn(Cc3ccc4c(c3)OCO4)c(=O)c21

>  <EC50>
≤ 1 µM

$$$$
>  <smiles-notation>
Cn1c2nc(Cc3nc[nH]n3)sc2c2cnn(Cc3cccc4[nH]ncc34)c(=O)c21

>  <EC50>
≤ 1 µM

$$$$
>  <smiles-notation>
Cn1c2nc(Cc3cc[nH]n3)sc2c2cnn(Cc3cccc(O)c3)c(=O)c21

>  <EC50>
≤ 1 µM

$$$$
>  <smiles-notation>
Cn1c2nc(Cc3cc[nH]n3)sc2c2cnn(Cc3nccc4[nH]ncc34)c(=O)c21

>  <EC50>
≤ 1 µM

$$$$
